# assay.explanation: Cycloheximide Counterscreen for Small Molecule Inhibitors of Shiga Toxin; also: read at 38.3 µM for the half of the compounds with a filed dose
# experimental.conditions: cell reporter, cycloheximide protein synthesis inhibition counterscreen; stronger effect = higher value
In all, about 300,000 compounds went through this assay and about 37,000 (12%) were called active. The entries come from a sample that favours actives as a whole.
measurement.label: max response (%)
# value in %; strip the unit string

[in] Quick one: max response for Cc1nc(COc2cccc(Cl)c2)sc1C(=O)/C=C/N(C)C ?
[out] 40.9

[in] Quick one: max response for CCN(C(=O)CSc1nnc(-c2ccncc2)o1)c1ccccc1 ?
[out] -2.4

[in] Quick one: max response for CC(=O)N1c2ccccc2N(Cc2ccc([N+](=O)[O-])cc2)C(=O)C1(C)C ?
[out] 10.6

[in] Quick one: max response for COc1ccc(C2CC(c3cccs3)=Nc3ccccc3S2)cc1OC (stereo not drawn) ?
[out] 30.8

[in] Quick one: max response for CC(Oc1ccc(Cl)cc1Cl)C(=O)/C=C/N(C)C (stereo not drawn) ?
[out] 2.24

[in] Quick one: max response for Cc1cc(/C=C2/C(=N)N3C(=NC2=O)SN=C3S(C)(=O)=O)c(C)n1-c1ccccc1 ?
[out] 28.8

Next:
[in] Quick one: max response for CCS(=O)(=O)C1=NSC2=NC(=O)/C(=C\c3ccc(OS(=O)(=O)c4ccccc4)cc3)C(=N)N21 ?
[out] 23.1

[in] Quick one: max response for Cc1cc(OCC(=O)N2CCN(c3ncccn3)CC2)ccc1Cl ?
[out] -2.98

[in] Quick one: max response for COc1ccc(C2CC(c3cccs3)=NN2c2ccc(F)cc2)cc1OC (stereo not drawn) ?
[out] 15.3

[in] Quick one: max response for COc1nc(NC2CCCCC2)nc(N2CCCCCC2)n1 ?
[out] 8.36

[in] Quick one: max response for CN(C)/C=C/C(=O)c1ccccc1F ?
[out] 5.51

[in] Quick one: max response for O=C(NCCCNC(=O)c1ccccc1Cl)c1cnccn1 ?
[out] -1.06

[in] Quick one: max response for CCOCN(C(=O)Cn1c(C(C)O)nc2ccccc21)c1c(C)cccc1CC (stereo not drawn) ?
[out] -4.33

[in] Quick one: max response for C=CCSc1nc(N)cc(=O)[nH]1 ?
[out] 13.9

[in] Quick one: max response for O=C(NCc1ccccn1)C1CCN(S(=O)(=O)c2ccc(Br)cc2)CC1 ?
[out] 5.38

----------
The following compounds are listed with their measured max response values.
# assay.explanation: Cycloheximide Counterscreen for Small Molecule Inhibitors of Shiga Toxin; also: read at 38.3 µM for the half of the compounds with a filed dose
# experimental.conditions: cell reporter, cycloheximide protein synthesis inhibition counterscreen; stronger effect = higher value
Screen size: about 300,000 compounds; about 37,000 (12%) were called active. Only a selection was taken, and actives are over-represented in it overall.
# value in %; strip the unit string

Worked set:
[in] Quick one: max response for O=C(NC1CCC(O)CC1)c1ccccc1OCc1ccc(F)cc1 (stereo not drawn) ?
[out] -3.74

[in] Quick one: max response for COC(=O)c1ccc(OCC(=O)NC(C)(C)C)cc1 ?
[out] 31.4

[in] Quick one: max response for COc1ccc(CC(=O)Nc2ccccc2NC(=O)c2ccco2)cc1OC ?
[out] 6.8

We next turn to a different compound, shown below.
[in] Quick one: max response for COc1ccc(C(=O)O/N=C(\N)Cc2ccc(Cl)cc2Cl)cc1OC ?
[out] 4.82

----------
# assay.explanation: Cycloheximide Counterscreen for Small Molecule Inhibitors of Shiga Toxin; also: read at 38.3 µM for the half of the compounds with a filed dose
# experimental.conditions: cell reporter, cycloheximide protein synthesis inhibition counterscreen
Hit rate of the full screen: of about 300,000 compounds, about 37,000 (12%) were called active. Cut-off read from the data, not from the text of the source: active = max response mostly above about 13% (no sharp cut-off); inactive = mostly below about 14%. This excerpt belongs to a sample that is enriched for actives.
Assign a class; possible classes are Y (active), N (inactive)

These solved cases illustrate the format of a correct answer.
[in] Record lookup: outcome of this test for N[C@@H](Cc1c[nH]c2ccccc12)c1nnc(SCc2c(F)cccc2Cl)o1 ?
[out] N

[in] Record lookup: outcome of this test for CSc1ccccc1NC(=O)c1cc(C2CC2)on1 ?
[out] Y

[in] Record lookup: outcome of this test for Clc1ccccc1CSc1nnc(-c2ccco2)c(-c2ccco2)n1 ?
[out] N

[in] Record lookup: outcome of this test for O=C(/C=C\c1cn(-c2ccccc2)nc1-c1cccs1)N1CCOCC1 ?
[out] Y

[in] Record lookup: outcome of this test for O=C(O)/C=C/c1cn(Cc2ccccc2)nc1-c1cccs1 ?
[out] N

[in] Record lookup: outcome of this test for Cc1cc(SCc2c(F)cccc2Cl)nc(=O)[nH]1 ?
[out] N

[in] Record lookup: outcome of this test for O=C(CSc1ccc(-c2ccco2)nn1)NCc1ccc2c(c1)OCO2 ?
[out] N

[in] Record lookup: outcome of this test for O=C(NC1CC1)c1ccc(-c2ccccc2)cc1 ?
[out] Y

Next:
[in] Record lookup: outcome of this test for COc1ccc(Cl)cc1NC(=O)CN(C)C(=O)CCCc1c[nH]c2ccccc12 ?
[out] N

[in] Record lookup: outcome of this test for COc1ccc(-c2nn(-c3ccccc3)cc2/C=C\C(=O)N2CCOCC2)cc1[N+](=O)[O-] ?
[out] N

[in] Record lookup: outcome of this test for O=C(NC1CC1)c1cccc(Br)c1 ?
[out] N

----------
# assay.explanation: Cycloheximide Counterscreen for Small Molecule Inhibitors of Shiga Toxin; also: read at 38.3 µM for the half of the compounds with a filed dose
# experimental.conditions: cell reporter, cycloheximide protein synthesis inhibition counterscreen
Out of some 300,000 compounds screened, about 37,000 (12%) were called active. Rule as the data show it: active = max response mostly above about 13% (no sharp cut-off); inactive = mostly below about 14%. Many of the other results were omitted from the sample, so actives are more common in it than they were.
Assign a class; possible classes are 1 for active, 0 for inactive

[in] Record lookup: outcome of this test for O=C(CCN1CCCO1)N1CCCC(N2CCN(c3cccc(C(F)(F)F)c3)CC2)C1 (stereo not given) ?
[out] 0

[in] Record lookup: outcome of this test for Cc1cccc(C2=N/C(=C/c3cccs3)C(=O)O2)c1 ?
[out] 1

Next:
[in] Record lookup: outcome of this test for CCOC(=O)c1cccc(NC(=O)CCc2nnc3ccc(N4CCOCC4)nn23)c1 ?
[out] 0

[in] Record lookup: outcome of this test for CC1CN(C(=O)CCC(=O)NCCCN2CCC(Cc3ccccc3)CC2)c2cc(Cl)ccc2O1 (stereo not given) ?
[out] 0

[in] Record lookup: outcome of this test for CCOc1ccc(N(CC(=O)NCC2CCCO2)S(=O)(=O)c2ccc(C)cc2)cc1 (stereo not given) ?
[out] 0

[in] Record lookup: outcome of this test for CCn1c(SCC(=O)NNC(=O)c2ccc(OC)cc2)nnc1C(C)C ?
[out] 0

[in] Record lookup: outcome of this test for COC(=O)c1ccc(NC(=O)CSc2nnc(-c3ccncc3)n2C)cc1 ?
[out] 0

[in] Record lookup: outcome of this test for CCCNC(=O)COc1coc(CN2CCN(Cc3ccccc3)CC2)cc1=O ?
[out] 0

[in] Record lookup: outcome of this test for CC(=O)n1cc([C@H]2C=C(C(=O)N3CCOCC3)O[C@@H](OCc3ccc(CO)cc3)C2)c2ccccc21 ?
[out] 0

[in] Record lookup: outcome of this test for Cc1ccc(N2CCN(C3=NC(=O)/C(=C\c4cccs4)S3)CC2)cc1 ?
[out] 0

----------
# assay.explanation: Cycloheximide Counterscreen for Small Molecule Inhibitors of Shiga Toxin; also: read at 38.3 µM for the half of the compounds with a filed dose
# experimental.conditions: cell reporter, cycloheximide protein synthesis inhibition counterscreen
In all, about 300,000 compounds went through this assay and about 37,000 (12%) were called active. Cut-off read from the data, not from the text of the source: active = max response mostly above about 13% (no sharp cut-off); inactive = mostly below about 14%. The sample as a whole holds a higher share of actives than the screen did.
Assign a class; possible classes are active, inactive

These solved cases illustrate the format of a correct answer.
[in] Record lookup: outcome of this test for O=C(O)c1ccc(N=NN2CCOCC2)cc1 ?
[out] active

[in] Record lookup: outcome of this test for COCCN1C(=O)C(=O)/C(=C(/O)c2ccc(S(=O)(=O)N3CCCCC3)cc2)C1c1ccc(OC)c(OC)c1 (stereo unspecified) ?
[out] inactive

[in] Record lookup: outcome of this test for Cc1c(CN2CCC(CO)(CCOc3ccccc3)CC2)[nH]c2ccc(Cl)cc12 ?
[out] inactive

Next:
[in] Record lookup: outcome of this test for COc1cc(N=Cc2c(O)c3ccccc3oc2=O)c(OC)cc1Cl ?
[out] inactive

[in] Record lookup: outcome of this test for COc1cc(C(=O)N/C(=C\c2cn(C)c3ccccc23)C(=O)N2CCOCC2)cc(OC)c1OC ?
[out] inactive

[in] Record lookup: outcome of this test for CN1CCN(S(=O)(=O)c2cccc(C(=O)O)c2)CC1 ?
[out] inactive

[in] Record lookup: outcome of this test for O=C(O)c1cccc(N=NN2CCCCCC2)c1 ?
[out] active

[in] Record lookup: outcome of this test for Cc1ccc(C(=O)N/N=C\c2cc(Br)c(Br)o2)cn1 ?
[out] inactive

[in] Record lookup: outcome of this test for O=C(c1ccccc1)N1CCN(C(=O)N2CCCCC2)CC1 ?
[out] inactive

[in] Record lookup: outcome of this test for O=C(NC(=O)N1CCOCC1)c1ccccc1 ?
[out] inactive

[in] Record lookup: outcome of this test for Cc1cc(C)c2nc(N(CCN(C)C)C(=O)/C=C/c3cccs3)sc2c1 ?
[out] inactive
